Recorded pKi for the following compounds
Biological target: GCN2 kinase (Homo sapiens, UniProt Q9P2K8)
Assay: GCN2 enzyme inhibition assay (Transcreener ADP2 fluorescence polarization)
Assay type: biochemical
Conditions: Enzyme activity for compounds of Formula IV; Ki(app), 280 μM ATP, 25° C.
pKi: −log10 of the molar value.

- Compound: "CC1CN(c2cc(Cl)nc(-c3cnc4cnc(C(F)(F)F)cn34)n2)C(C)C(c2cn[nH]c2)N1 (stereo not shown)"
  pKi: "7.00 to 8.00"
- Compound: "C[C@H]1CN(c2cccc(-c3cnc4cnc(C(F)F)cn34)n2)C[C@@H](CNS(C)(=O)=O)C1(F)F (single isomer, unassigned)"
  pKi: "6.00 to 7.00"
- Compound: "FC(F)c1cn2c(-c3nccc(N4CCCC(c5nn[nH]n5)C4)n3)cnc2cn1 (stereo not shown)"
  pKi: "6.00 to 7.00"
- Compound: "CC1CC(CS(C)(=N)=O)C(C)N(c2ccnc(-c3cnc4cnc(C(F)F)cn34)n2)C1 (single isomer, unassigned) [IV-366]"
  pKi: "6.00 to 7.00"
- Compound: "O=C(c1cccc(-c2ccnc(-c3cnc4cnc(C(F)F)cn34)n2)c1)N1CCNCC1"
  pKi: "6.00 to 7.00"
- Compound: "CC1CN(c2ccnc(-c3cnc4cnc(C(F)(F)F)cn34)n2)C(C)C(c2cn[nH]c2)O1 (single isomer, unassigned) [IV-451]"
  pKi: "> 8.00"
- Compound: "FC(F)(F)c1cn2c(-c3nccc(N4CCOC(c5ccccn5)C4)n3)cnc2cn1 (stereo not shown)"
  pKi: "6.00 to 7.00"

* * *

Biological target: intracellular GCN2 (phosphorylation of the GCN2 substrate eIF2α) (Homo sapiens, UniProt Q9P2K8)
Sequence (Q9P2K8 whole entry): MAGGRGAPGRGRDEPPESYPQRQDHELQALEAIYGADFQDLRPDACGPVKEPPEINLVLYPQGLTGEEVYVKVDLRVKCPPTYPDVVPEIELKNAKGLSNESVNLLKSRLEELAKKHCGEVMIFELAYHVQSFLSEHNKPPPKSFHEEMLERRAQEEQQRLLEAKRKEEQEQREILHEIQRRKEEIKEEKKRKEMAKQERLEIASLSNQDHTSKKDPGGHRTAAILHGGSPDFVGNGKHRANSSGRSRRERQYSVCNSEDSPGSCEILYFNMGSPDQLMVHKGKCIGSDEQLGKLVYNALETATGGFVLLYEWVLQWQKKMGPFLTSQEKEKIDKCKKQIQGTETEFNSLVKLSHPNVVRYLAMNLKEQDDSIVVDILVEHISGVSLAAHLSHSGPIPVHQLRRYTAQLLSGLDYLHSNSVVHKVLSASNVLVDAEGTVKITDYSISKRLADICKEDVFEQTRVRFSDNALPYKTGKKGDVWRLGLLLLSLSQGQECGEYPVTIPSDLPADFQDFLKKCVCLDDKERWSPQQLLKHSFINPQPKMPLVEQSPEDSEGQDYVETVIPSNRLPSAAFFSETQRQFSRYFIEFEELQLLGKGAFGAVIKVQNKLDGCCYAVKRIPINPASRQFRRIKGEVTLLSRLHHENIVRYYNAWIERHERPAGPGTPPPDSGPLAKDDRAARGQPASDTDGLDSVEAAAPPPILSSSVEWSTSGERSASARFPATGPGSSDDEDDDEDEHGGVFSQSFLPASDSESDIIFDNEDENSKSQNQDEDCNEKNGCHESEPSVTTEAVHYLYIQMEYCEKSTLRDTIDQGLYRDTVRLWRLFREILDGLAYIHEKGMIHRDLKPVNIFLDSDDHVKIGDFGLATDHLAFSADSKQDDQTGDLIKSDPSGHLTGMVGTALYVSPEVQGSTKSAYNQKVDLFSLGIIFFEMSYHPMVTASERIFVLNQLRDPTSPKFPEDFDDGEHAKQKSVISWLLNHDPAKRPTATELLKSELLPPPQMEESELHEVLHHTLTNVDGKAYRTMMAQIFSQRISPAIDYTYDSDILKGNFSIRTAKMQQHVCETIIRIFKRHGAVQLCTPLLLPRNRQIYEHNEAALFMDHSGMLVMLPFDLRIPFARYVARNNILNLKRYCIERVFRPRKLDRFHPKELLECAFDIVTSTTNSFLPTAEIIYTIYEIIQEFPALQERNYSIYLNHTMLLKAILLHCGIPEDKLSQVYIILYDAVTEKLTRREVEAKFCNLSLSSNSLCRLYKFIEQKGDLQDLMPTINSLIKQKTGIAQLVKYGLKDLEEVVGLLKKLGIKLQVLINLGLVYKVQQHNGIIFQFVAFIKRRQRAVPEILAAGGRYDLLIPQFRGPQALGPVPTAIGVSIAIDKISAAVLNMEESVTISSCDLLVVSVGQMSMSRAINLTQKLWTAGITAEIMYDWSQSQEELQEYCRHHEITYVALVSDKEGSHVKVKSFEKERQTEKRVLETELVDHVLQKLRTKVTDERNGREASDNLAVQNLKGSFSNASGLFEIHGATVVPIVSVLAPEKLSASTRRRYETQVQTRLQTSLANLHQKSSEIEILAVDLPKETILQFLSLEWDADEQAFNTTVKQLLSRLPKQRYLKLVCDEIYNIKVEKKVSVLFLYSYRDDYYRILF
Assay: GCN2 cellular inhibition assay (AlphaScreen SureFire P-eIF2α Ser51, borrelidin-treated U2OS cells)
Type: cell-based
Conditions: compounds of Formula II; biomarker assay, phosphorylated eIF2α Ser51 in borrelidin-treated U2OS cells
Recorded IC50 for the following molecules
Experimental Endpoint: IC50

- Molecule: "CC1C(CNS(C)(=O)=O)C(F)(F)CCN1c1cc(-c2cnc3ccc(C(F)F)nn23)ncn1 (single isomer, unassigned) [II-302]"
  Readout Value: "0.5 to 5 µM"
- Molecule: "CS(=O)(=O)N1CCN(C(=O)C2CCCN(c3cc(-c4cnc5ccc(C(F)F)nn45)ncn3)C2)CC1 (centres unmarked)"
  Readout Value: "> 5 µM"
- Molecule: "CC1CN(c2cc(-c3cnc4ccc(C(F)F)nn34)ncn2)CC(CNS(C)(=O)=O)N1 (centres unmarked)"
  Readout Value: "0.5 to 5 µM"
- Molecule: "CS(=O)(=O)N1CC2(CCCN(c3ccnc(-c4cnc5ccc(C(F)F)nn45)c3)C2)C1"
  Readout Value: "< 0.5 µM"
- Molecule: "CS(C)(=O)=NC1CCCN(c2cc(-c3cnc4ccc(C(F)F)nn34)ncn2)C1 (centres unmarked) [II-408]"
  Readout Value: "0.5 to 5 µM"
- Molecule: "CC1NCCN(c2cc(-c3cnc4ccc(C(F)F)nn34)ncn2)C1CNS(C)(=O)=O (centres unmarked)"
  Readout Value: "> 5 µM"
- Molecule: "OCC1CN(c2cc(-c3cnc4ccc(C(F)(F)F)nn34)ncn2)CCO1 (centres unmarked)"
  Readout Value: "> 5 µM"
- Molecule: "O=C(O)[C@H]1CCCN(c2cc(-c3cnc4ccc(C(F)(F)F)nn34)ncn2)C1"
  Readout Value: "> 5 µM"
